Origin of the recorded values: patent US20250230247A1

target under test: T1, human Dectin-1 (biosensor tests of Tables 3, 4A and 9; construct not stated) (human, UniProt Q9BXN2 66-247, limits assumed)
T1 construct: also called hDectin-1
T1 sequence (looked up): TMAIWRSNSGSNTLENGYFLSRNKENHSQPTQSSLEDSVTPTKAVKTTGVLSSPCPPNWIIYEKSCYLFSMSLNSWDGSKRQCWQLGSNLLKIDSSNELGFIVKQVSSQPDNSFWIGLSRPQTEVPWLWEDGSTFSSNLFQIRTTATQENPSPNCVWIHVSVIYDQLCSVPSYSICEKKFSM
assay text: Octet response
Listing of entries alongside the reported X = 290.

binder	X = 290
2M24A.1.18 (Fab, V domains shown, Fab; also called 2M24.1.18) VH: QVQLVQSGAEVKKPGASVKVSCKSSGYTFTDYYIHWVRQAPGQGLEWMGWINPNSGDTNYAQKFQGRITMTRDTSISTAYLELSRLRSDDTAVFYCARNSGAYSFGYWGQGTLVTVSS VL: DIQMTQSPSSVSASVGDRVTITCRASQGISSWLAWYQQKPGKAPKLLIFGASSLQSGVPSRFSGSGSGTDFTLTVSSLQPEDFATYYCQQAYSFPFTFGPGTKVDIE	0.138
2M24A.1.17 (Fab, V domains shown, Fab; also called 2M24.1.17) VH: QVQLVQSGAEVKKPGASVKVSCKSSGYTFTDYYIHWVRQAPGQGLEWMGWINPNSGDTNYAQKFQGRITMTRDTSISTAYLELSRLRSDDTAVFYCARNSASYSFGYWGQGTLVTVSS VL: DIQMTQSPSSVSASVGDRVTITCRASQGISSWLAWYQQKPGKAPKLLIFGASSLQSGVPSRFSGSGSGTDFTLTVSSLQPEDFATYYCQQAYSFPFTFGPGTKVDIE	0.131
2M24A.1.16 (Fab, V domains shown, Fab; also called 2M24.1.16) VH: QVQLVQSGAEVKKPGASVKVSCKSSGYTFTDYYIHWVRQAPGQGLEWMGWINPNSGDTNYAQKFQGRITMTRDTSISTAYLELSRLRSDDTAVFYCARNAGSYSFGYWGQGTLVTVSS VL: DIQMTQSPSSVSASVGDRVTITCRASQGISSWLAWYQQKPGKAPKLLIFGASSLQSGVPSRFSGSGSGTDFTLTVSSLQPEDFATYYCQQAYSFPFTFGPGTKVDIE	0.12
